This document collects IC50 values reported for human FAP (Homo sapiens).
Counter-ions that a name gives are not always drawn. Starred links: 1 amine or outer side, 2 acyl side, 3 side chain; linkers in the order of their positions; H or OH if unused. Non-standard residues stand in square brackets, D forms with d. Residues, ends and D or L forms follow the SMILES beside them. Groups on a side chain read outwards from the residue. *: point of attachment. DOTA = O=C(O)CN1CCN(CC(=O)O)CCN(CC(=O)*)CCN(CC(=O)O)CC1; NOTA = O=C(O)CN1CCN(CC(=O)O)CCN(CC(=O)*)CC1; Phe(4-CH2NH2) = NCc1ccc(C[C@H](N)C(=O)O)cc1; Piperazinyl(4-CH2COOH) = O=C(O)CN1CCN(*)CC1; 3Pal(6-NH2) = Nc1ccc(C[C@H](N)C(=O)O)cn1; AEF = NCCOc1ccc(C[C@H](N)C(=O)O)cc1; NMeF = CN[C@@H](Cc1ccccc1)C(=O)O; Aoc(2) = CCCCCC[C@H](N)C(=O)O; Ahp(2) = CCCCC[C@H](N)C(=O)O; AEEA = NCCOCCOCC(=O)O; CO = O=C([*:1])[*:2]
attribute measured: IC50

- CCCCCC[C@@H]1NC(=O)[C@H](Cc2ccc(CNC(=O)COCCOCCNC(=O)CN3CCN(CC(=O)O)CCN(CC(=O)O)CC3)cc2)NC(=O)[C@H](Cc2ccccc2)N(C)C(=O)CNC(=O)CNC(=O)[C@H]2CCCN2C(=O)[C@H](CC(=O)O)NC(=O)[C@H](CCCCNC(=O)N2CCN(CC(=O)O)CC2)NC(=O)CNC(=O)[C@H](Cc2c[nH]c3ccccc23)NC1=O [Example B40] (cyclo(GG[NMeF][Phe(4-CH2NH2)]([AEEA-NOTA])[Aoc(2)]WGK([CO-Piperazinyl(4-CH2COOH)])D[dP])): 6 pM
- CCCCC[C@@H]1NC(=O)[C@H](Cc2ccc(OCCNC(=O)CN3CCN(CC(=O)O)CCN(CC(=O)O)CCN(CC(=O)O)CC3)cc2)NC(=O)[C@H](Cc2ccccc2)N(C)C(=O)CNC(=O)CNC(=O)[C@H]2CCCN2C(=O)[C@H](CC(=O)O)NC(=O)[C@H](Cc2ccc(N)nc2)NC(=O)CNC(=O)[C@H](Cc2c[nH]c3ccccc23)NC1=O [Example B24, TFA salt] (cyclo([AEF](DOTA)[Ahp(2)]WG[3Pal(6-NH2)]D[dP]GG[NMeF])): 12 pM

====

biological target: mouse FAP (Mus musculus, UniProt P97321); construct: biotinylated His, Avi tag, mouse FAP (26-761, FAP-M82Q5); His; Avi tag (biotinylated); purchased AcroBiosystems FAP-M82Q5; assay: Surface plasmon resonance (SPR) for peptide affinity, mouse FAP; format: binding
Sequence (P97321 26-761): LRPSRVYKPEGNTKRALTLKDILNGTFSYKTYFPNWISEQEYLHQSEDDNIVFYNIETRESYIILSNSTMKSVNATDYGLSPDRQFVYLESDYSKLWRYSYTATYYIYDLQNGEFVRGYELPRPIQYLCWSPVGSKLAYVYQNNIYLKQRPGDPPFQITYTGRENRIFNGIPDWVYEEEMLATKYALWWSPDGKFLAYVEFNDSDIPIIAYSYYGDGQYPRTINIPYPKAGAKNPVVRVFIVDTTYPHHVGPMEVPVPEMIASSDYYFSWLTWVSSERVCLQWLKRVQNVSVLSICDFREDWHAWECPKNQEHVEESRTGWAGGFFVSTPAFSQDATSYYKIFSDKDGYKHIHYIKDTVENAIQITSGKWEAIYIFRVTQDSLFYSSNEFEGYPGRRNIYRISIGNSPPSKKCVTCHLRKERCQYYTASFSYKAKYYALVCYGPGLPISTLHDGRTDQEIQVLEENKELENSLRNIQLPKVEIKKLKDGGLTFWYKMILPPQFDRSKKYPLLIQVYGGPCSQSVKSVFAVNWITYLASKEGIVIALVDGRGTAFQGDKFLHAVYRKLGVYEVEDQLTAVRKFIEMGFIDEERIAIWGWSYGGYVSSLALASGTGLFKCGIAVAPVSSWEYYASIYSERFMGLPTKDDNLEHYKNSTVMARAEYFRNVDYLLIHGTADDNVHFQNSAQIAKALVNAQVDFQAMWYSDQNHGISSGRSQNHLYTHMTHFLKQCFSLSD
pKd: −log10 of the molar value. Where a name gives a salt, the structure may show the parent alone. Non-standard residues stand in square brackets, D forms with d. Residues, ends and D or L forms follow the SMILES beside them. Trp(7-aza) = N[C@@H](Cc1c[nH]c2ncccc12)C(=O)O; Phe(4-CH2NH2) = NCc1ccc(C[C@H](N)C(=O)O)cc1; NMeAla(cPent) = CN[C@@H](CC1CCCC1)C(=O)O; NMeF = CN[C@@H](Cc1ccccc1)C(=O)O; Ahp(2) = CCCCC[C@H](N)C(=O)O; Cba = N[C@@H](CC1CCC1)C(=O)O; AEEA = NCCOCCOCC(=O)O
Measured pKd values are reported for all entries that follow.
attribute measured: pKd

- CCCCC[C@@H]1NC(=O)[C@H](Cc2ccc(O)cc2)NC(=O)[C@H](CC2CCC2)NC(=O)CNC(=O)CNC(=O)[C@H]2CCCN2C(=O)[C@H](CC(=O)O)NC(=O)[C@H](Cc2ccc(O)cc2)NC(=O)CNC(=O)[C@H](Cc2c[nH]c3ccccc23)NC1=O [Example A60] (cyclo([Ahp(2)]WGYD[dP]GG[Cba]Y)): 10.30
- CCCCC[C@@H]1NC(=O)[C@H](Cc2ccc(O)cc2)NC(=O)[C@H](Cc2ccccc2)N(C)C(=O)CNC(=O)[C@H](CCCCN)NC(=O)[C@H]2CCCN2C(=O)[C@H](CC(=O)O)NC(=O)[C@H](Cc2ccc(O)cc2)NC(=O)CNC(=O)[C@H](Cc2c[nH]c3ncccc23)NC1=O [Example A26, TFA salt] (cyclo([Ahp(2)][Trp(7-aza)]GYD[dP]KG[NMeF]Y)): 8.57
- CCCCC[C@@H]1NC(=O)[C@H](Cc2ccc(O)cc2)NC(=O)[C@H](CC2CCCC2)N(C)C(=O)CNC(=O)[C@H](CCCCN)NC(=O)[C@H]2CCCN2C(=O)[C@H](CC(=O)O)NC(=O)[C@H](Cc2ccc(O)cc2)NC(=O)CNC(=O)[C@H](Cc2c[nH]c3ccccc23)NC1=O [Example A44, TFA salt] (cyclo([Ahp(2)]WGYD[dP]KG[NMeAla(cPent)]Y)): 8.57
- CCCCC[C@@H]1NC(=O)[C@H](Cc2ccc(CNC(=O)COCCOCCN)cc2)NC(=O)[C@H](Cc2ccccc2)N(C)C(=O)CNC(=O)CNC(=O)[C@H]2CCCN2C(=O)[C@H](CC(=O)O)NC(=O)[C@H](Cc2ccc(O)cc2)NC(=O)CNC(=O)[C@H](Cc2c[nH]c3ccccc23)NC1=O [Example A27] (cyclo([Ahp(2)]WGYD[dP]GG[NMeF][Phe(4-CH2NH2)](AEEA))): 9.66
- CCCCC[C@@H]1NC(=O)[C@H](Cc2ccc(O)cc2)NC(=O)[C@H](Cc2ccccc2)N(C)C(=O)CNC(=O)CNC(=O)[C@H]2CCCN2C(=O)[C@H](CC(=O)O)NC(=O)[C@H](Cc2ccc(OC)cc2)NC(=O)CNC(=O)[C@H](Cc2c[nH]c3ccccc23)NC1=O [Example A13] (cyclo([Ahp(2)]WGY(Me)D[dP]GG[NMeF]Y)): 10.96
